Experiment description: Cytotoxicity against human SUDHL9 cells after 48 hrs by CellTitre-Blue assay
Format: functional, cell-based
Condition parameters: SUDHL9, 48 h
Reported property: IC50 (nM)
Write it as a number; the unit nM goes unstated.

**Q:** Can you look up the measured IC50 of CCOc1ccccc1C(=O)/C=C/c1cc2ccccc2[nH]1 for me?
**A:** 31

----------
Below, each entry is listed alongside its reported IC50.
Experiment description: Cytotoxicity against human U2940 cells after 48 hrs by CellTitre-Blue assay
Format: functional, cell-based
Condition parameters: U-2940, 48 h
Note: unit µM is implicit; provide only the numeric part.

**Q:** Which value of IC50 has been reported for CCOc1ccccc1C(=O)/C=C/c1csc2ccccc12 in the records?
**A:** 0.86

**Q:** Recorded IC50 of CCOc1ccccc1C(=O)/C=C/c1cccc2ccccc12 , please.
**A:** 7.4

**Q:** What value of IC50 has been recorded for this entry: CC(C)Oc1ccccc1C(=O)/C=C/c1ccc2ccccc2c1
**A:** 11

**Q:** Item CCOc1ccccc1C(=O)/C=C/c1ccc2ccccc2c1 has what recorded IC50?
**A:** 2.4

**Q:** Please give the measured IC50 for this compound: C=Cc1cccc(/C=C/C(=O)c2ccccc2OCC)c1
**A:** 2.5

**Q:** For CCOc1ccccc1C(=O)/C=C/c1ccc2c(c1)OCO2 , what is its reported IC50?
**A:** 9.5

**Q:** Find the recorded IC50 belonging to CCOc1ccccc1C(=O)/C=C/c1ccc2cc(OC)ccc2c1 and report it.
**A:** 25

**Q:** Which IC50 is reported for this compound? CCOc1ccc(C(=O)/C=C/c2csc3ccccc23)cc1
**A:** 15

**Q:** Look at this compound and give its reported IC50. Cc1ccccc1C(=O)/C=C/c1ccc2ccccc2c1
**A:** 10

**Q:** Sample CCOc1cccc(C(=O)/C=C/c2ccc3ccccc3c2)c1 — what was its IC50?
**A:** 16

**Q:** Query: IC50; subject: CCCCOc1ccccc1C(=O)/C=C/c1ccc2ccccc2c1
**A:** 5.3

----------
Test system: Jurkat
Experiment description: Cytotoxicity against human Jurkat cells after 24 hrs by MTT assay
Type: functional, cell-based
Reported property: IC50 (µM)
A number alone suffices; assume µM.

**Q:** For the compound shown here, CCOc1ccccc1C(=O)/C=C/c1ccc2ccccc2c1 , give the reported IC50.
**A:** 21

----------
Quick reference: pIC50 of the listed items.
Experiment description: Cytotoxicity against mouse M210B4 cells after 48 hrs by CellTitre-Blue assay
Type: cell-based
Condition parameters: M210B4, 48 h
Just the number, please; pIC50 means minus log10 of the concentration in mol/L.

Here are 6 molecules together with their reported answers.
| Compound smiles | pIC50 |
| --- | --- |
| CCOc1ccccc1C(=O)/C=C/c1cccc2ccccc12 | 4.77 |
| Cc1ccccc1C(=O)/C=C/c1ccc2ccccc2c1 | 4.14 |
| COc1ccccc1C(=O)/C=C/c1ccc2ccccc2c1 | 4.38 |
| CCOc1ccccc1C(=O)/C=C/c1cc2ccccc2[nH]1 | 4.72 |
| CCOc1ccccc1C(=O)/C=C/c1ccc2ccccc2c1 | 5.11 |
| CCOc1ccccc1C(=O)/C=C/c1csc2ccccc12 | 5.09 |

**Q:** Give the measured pIC50 of CCOc1ccccc1C(=O)/C=C/c1ccc2sccc2c1 .
**A:** 4.68

Reference for the values: ChEMBL document CHEMBL3407335
